Target: T1, AnkG_MBD 'site-1' mutant (Phe141Gln, Phe164Gln) (rat)
T1 chain: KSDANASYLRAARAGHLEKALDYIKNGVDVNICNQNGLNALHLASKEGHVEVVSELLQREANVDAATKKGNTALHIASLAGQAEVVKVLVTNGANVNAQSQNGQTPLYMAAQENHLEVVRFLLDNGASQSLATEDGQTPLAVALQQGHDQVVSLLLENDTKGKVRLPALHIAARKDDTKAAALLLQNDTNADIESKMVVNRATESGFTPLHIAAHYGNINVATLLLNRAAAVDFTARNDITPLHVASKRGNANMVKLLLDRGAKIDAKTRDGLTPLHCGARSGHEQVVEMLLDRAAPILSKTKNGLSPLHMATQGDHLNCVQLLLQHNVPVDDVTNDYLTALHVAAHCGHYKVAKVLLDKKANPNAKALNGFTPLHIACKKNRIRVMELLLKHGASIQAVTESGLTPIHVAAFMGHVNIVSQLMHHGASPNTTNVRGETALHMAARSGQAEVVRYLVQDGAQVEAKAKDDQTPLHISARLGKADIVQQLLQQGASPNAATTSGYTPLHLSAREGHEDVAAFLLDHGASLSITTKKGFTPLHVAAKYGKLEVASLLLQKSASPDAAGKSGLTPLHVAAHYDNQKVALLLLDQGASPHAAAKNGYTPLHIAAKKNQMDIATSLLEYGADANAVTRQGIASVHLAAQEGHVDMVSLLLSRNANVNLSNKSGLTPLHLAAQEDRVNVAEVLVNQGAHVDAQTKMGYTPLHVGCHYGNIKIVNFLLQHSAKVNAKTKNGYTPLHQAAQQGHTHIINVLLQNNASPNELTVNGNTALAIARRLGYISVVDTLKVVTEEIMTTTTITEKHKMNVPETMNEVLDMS
Assay: ITC
quantity measured: Kd (nM)
Give just the number in nM; leave the unit off.

Return reported Kd; argument: AnkG linker ΔAI-c (aa 861–920) (domain or fragment) KASAPEKLSDGEYISDGEEGEDAITGDTDKYLGPQDLKELGDDSLPAEGYVGFSLGARSA
2600
